# System under test: T1, human IL-11 (human, UniProt P20809 22-199)
# T1 construct: Invigate, e.g. lot #C121021-19; biotinylated where coated in the ELISA; also called hIL-11; hIL11
# T1 sequence: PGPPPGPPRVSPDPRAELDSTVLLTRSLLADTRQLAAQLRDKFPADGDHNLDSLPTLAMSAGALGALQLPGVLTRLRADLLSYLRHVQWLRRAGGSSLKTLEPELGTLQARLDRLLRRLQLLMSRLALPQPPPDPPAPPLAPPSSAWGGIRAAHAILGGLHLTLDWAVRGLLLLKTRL
# Test details: SPR, antibody captured, IL-11 as analyte
Readout: Kd (nM)
Supply the numeric figure in nM, leaving out any unit text.

Take a look at these entries with their results.
Binder	Kd (nM)
TPP-29381 (antibody, human IgG1, V domains shown) VH: EVQLLESGGGLVQPGGSLRLSCAASGFTFSSYGMHWVRQAPGKGLEWVAVISYDGSYKYYADSVKGRFTISRDNSKNTLYLQMNSLRAEDTAVYYCAAGVPDYWGQGTLVTVSS VL: QSVLTQPPSASGTPGQRVTISCSGSSSNIGSDYDVHWYQQLPGTAPKLLIYSNNERPSGVPDRFSGSKSGTSASLAISGLRSEDEADYYCSAWDSSLSGPVFGGGTKLTVL	0.62
TPP-29393 (antibody, human IgG1, V domains shown) VH: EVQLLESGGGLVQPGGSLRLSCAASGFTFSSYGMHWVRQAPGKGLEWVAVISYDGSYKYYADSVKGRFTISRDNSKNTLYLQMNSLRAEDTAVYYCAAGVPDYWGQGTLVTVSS VL: QSVLTQPPSASGTPGQRVTISCSGSSSNIGSDLDVHWYQQLPGTAPKLLIYSNEERPSGVPDRFSGSKSGTSASLAISGLRSEDEADYYCAAWDDSLYGPVFGGGTKLTVL	0.66
TPP-29383 (antibody, human IgG1, V domains shown) VH: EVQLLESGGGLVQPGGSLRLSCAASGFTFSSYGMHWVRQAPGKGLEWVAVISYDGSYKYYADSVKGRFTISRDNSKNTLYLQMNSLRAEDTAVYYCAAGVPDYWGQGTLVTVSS VL: QSVLTQPPSASGTPGQRVTISCSGSSSNIGSDLDVHWYQQLPGTAPKLLIYSNEERPSGVPDRFSGSKSGTSASLAISGLRSEDEADYYCAAWDPSLYGPVFGGGTKLTVL	1.1
TPP-29404 (antibody, human IgG1, V domains shown) VH: EVQLLESGGGLVQPGGSLRLSCAASGFTFSSYGGHWVRQAPGKGLEWVALISYDGSYKYYADSVKGRFTISRDNSKNTLYLQMNSLRAEDTAVYYCAAGVPDYWGQGTLVTVSS VL: QSVLTQPPSASGTPGQRVTISCSGSSSNIGSYYDVHWYQQLPGTAPKLLIYSNNERPSGVPDRFSGSKSGTSASLAISGLRSEDEADYYCAAWDSSLSGPVFGGGTKLTVL	0.2

# lookup: Kd of TPP-29402 (antibody, human IgG1, V domains shown) VH: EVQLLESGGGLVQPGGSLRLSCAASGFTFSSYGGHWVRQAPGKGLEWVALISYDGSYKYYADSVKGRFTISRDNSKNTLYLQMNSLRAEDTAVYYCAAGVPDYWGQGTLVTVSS VL: QSVLTQPPSASGTPGQRVTISCSGSSSNIGSGLDVHWYQQLPGTAPKLLIYSNEERPSGVPDRFSGSKSGTSASLAISGLRSEDEADYYCAAWDSSLYGPVFGGGTKLTVL
0.19
